- system_tested: Tyrosine-protein kinase JAK1 (Homo sapiens, UniProt P23458)
- Sequence (P23458 whole entry): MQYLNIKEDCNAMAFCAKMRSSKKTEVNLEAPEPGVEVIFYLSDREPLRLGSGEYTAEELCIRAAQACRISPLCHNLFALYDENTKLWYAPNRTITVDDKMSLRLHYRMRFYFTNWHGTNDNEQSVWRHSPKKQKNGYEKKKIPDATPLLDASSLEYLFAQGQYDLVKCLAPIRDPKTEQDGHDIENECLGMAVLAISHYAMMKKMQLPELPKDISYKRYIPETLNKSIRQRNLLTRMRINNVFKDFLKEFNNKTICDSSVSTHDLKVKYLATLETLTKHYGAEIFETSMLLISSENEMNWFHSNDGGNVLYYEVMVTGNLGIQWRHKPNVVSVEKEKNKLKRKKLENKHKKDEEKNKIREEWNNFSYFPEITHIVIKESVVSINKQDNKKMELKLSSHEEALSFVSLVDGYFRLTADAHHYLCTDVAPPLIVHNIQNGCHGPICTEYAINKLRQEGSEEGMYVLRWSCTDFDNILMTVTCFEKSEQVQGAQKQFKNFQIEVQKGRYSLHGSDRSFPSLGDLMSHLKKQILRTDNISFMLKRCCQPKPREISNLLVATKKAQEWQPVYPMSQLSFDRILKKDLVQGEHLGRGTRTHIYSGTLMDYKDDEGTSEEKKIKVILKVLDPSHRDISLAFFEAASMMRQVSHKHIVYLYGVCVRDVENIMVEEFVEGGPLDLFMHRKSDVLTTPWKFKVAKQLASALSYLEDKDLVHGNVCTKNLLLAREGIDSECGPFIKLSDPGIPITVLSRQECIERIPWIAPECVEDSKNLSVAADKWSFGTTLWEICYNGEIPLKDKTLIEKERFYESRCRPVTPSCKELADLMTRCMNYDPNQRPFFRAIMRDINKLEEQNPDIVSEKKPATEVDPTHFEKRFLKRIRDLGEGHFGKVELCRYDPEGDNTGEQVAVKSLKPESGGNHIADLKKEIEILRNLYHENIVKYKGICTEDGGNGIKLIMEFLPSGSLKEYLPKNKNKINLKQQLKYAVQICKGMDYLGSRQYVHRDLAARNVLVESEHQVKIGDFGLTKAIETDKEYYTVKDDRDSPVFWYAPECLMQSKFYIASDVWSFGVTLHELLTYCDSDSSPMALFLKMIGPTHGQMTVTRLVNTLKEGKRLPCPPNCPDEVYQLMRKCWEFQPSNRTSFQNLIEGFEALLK
Simple rule here: IC50 less than 20 nM is 1 (yes), otherwise 0 (no).

# item_smiles, class
records = [
    ("CN(c1ncnc2[nH]ccc12)[C@H]1CN(Cc2ccccc2)CC12CC2", "0 (no)"),
    ("CCCS(=O)(=O)N1C[C@H](N(C)c2ncnc3[nH]ccc23)C2(CC2)C1", "1 (yes)"),
    ("CCCCN1C[C@H](N(C)c2ncnc3[nH]ccc23)C2(CC2)C1", "0 (no)"),
]

Task item: Take the compound `CN(c1ncnc2[nH]ccc12)[C@H]1CN(S(=O)(=O)c2ccccc2C#N)CC12CC2` and say whether its IC50 is less than 20 nM.
Reply: 0 (no)

Task item: Let us now turn to `CC(=O)NCC(=O)N1C[C@H](N(C)c2ncnc3[nH]ccc23)C2(CC2)C1`
Reply: 0 (no)

Task item: // query: `CN(c1ncnc2[nH]ccc12)[C@H]1CN(S(=O)(=O)c2cccc([N+](=O)[O-])c2)CC12CC2`
Reply: 1 (yes)

Task item: Now try `CN(c1ncnc2[nH]ccc12)[C@H]1CN(S(=O)(=O)c2ccccc2F)CC12CC2` .
Reply: 1 (yes)

Task item: Next entry: `CC(C)COC(=O)N1C[C@H](N(C)c2ncnc3[nH]ccc23)C2(CC2)C1`
Reply: 0 (no)

Task item: Moving on to the next compound: `CN(c1ncnc2[nH]ccc12)[C@H]1CN(C(=O)c2cccnc2)CC12CC2`
Reply: 0 (no)
